APPLIED CONDITIONS: in methanol, 313.15 K

- STRUCTURE STRING: "NC(=O)c1ccccc1N"
  solubility (mole fraction): 0.17

----------
APPLIED CONDITIONS: in ethanol, 303.35 K
RECORDED METRIC: solubility (mole fraction)

- STRUCTURE STRING: "NC(=O)c1ccccc1N"
  RECORDED METRIC: "solubility (mole fraction)"
  VALUE REPORTED: 0.0742

----------
APPLIED CONDITIONS: in isobutanol, 279.15 K

- STRUCTURE STRING: "NC(=O)c1ccccc1N"
  solubility (mole fraction): 0.013

----------
APPLIED CONDITIONS: in methyl acetate, 283.65 K
RECORDED METRIC: solubility (mole fraction)

- STRUCTURE STRING: "NC(=O)c1ccccc1N"
  VALUE REPORTED: 0.0797

----------
APPLIED CONDITIONS: in acetone, 324.15 K

- STRUCTURE STRING: "NC(=O)c1ccccc1N"
  solubility (mole fraction): 0.386

----------
APPLIED CONDITIONS: in ethanol, 317.15 K

- STRUCTURE STRING: "NC(=O)c1ccccc1N"
  solubility (mole fraction): 0.117

----------
APPLIED CONDITIONS: in ethanol, 293.35 K
RECORDED METRIC: solubility (mole fraction)

- STRUCTURE STRING: "NC(=O)c1ccccc1N"
  VALUE REPORTED: 0.0554

----------
APPLIED CONDITIONS: in acetone, 298.95 K

- STRUCTURE STRING: "NC(=O)c1ccccc1N"
  solubility (mole fraction): 0.243

----------
APPLIED CONDITIONS: in n-butanol, 273.15 K

- STRUCTURE STRING: "NC(=O)c1ccccc1N"
  solubility (mole fraction): 0.0162

----------
APPLIED CONDITIONS: in methanol, 284.15 K
RECORDED METRIC: solubility (mole fraction)

- STRUCTURE STRING: "NC(=O)c1ccccc1N"
  RECORDED METRIC: "solubility (mole fraction)"
  VALUE REPORTED: 0.0684

----------
APPLIED CONDITIONS: in isobutanol, 298.95 K

- STRUCTURE STRING: "NC(=O)c1ccccc1N"
  solubility (mole fraction): 0.0261

----------
APPLIED CONDITIONS: in acetone, 284.15 K

- STRUCTURE STRING: "NC(=O)c1ccccc1N"
  solubility (mole fraction): 0.193

----------
APPLIED CONDITIONS: in ethyl acetate, 303.35 K

- STRUCTURE STRING: "NC(=O)c1ccccc1N"
  solubility (mole fraction): 0.108

----------
APPLIED CONDITIONS: in n-propanol, 273.15 K
RECORDED METRIC: solubility (mole fraction)

- STRUCTURE STRING: "NC(=O)c1ccccc1N"
  RECORDED METRIC: "solubility (mole fraction)"
  VALUE REPORTED: 0.0193

----------
APPLIED CONDITIONS: in isopentanol, 283.65 K

- STRUCTURE STRING: "NC(=O)c1ccccc1N"
  solubility (mole fraction): 0.0152

----------
APPLIED CONDITIONS: in n-propanol, 279.15 K

- STRUCTURE STRING: "NC(=O)c1ccccc1N"
  solubility (mole fraction): 0.0232

Numbers sourced from BigSolDB 2.1.
